molecular target: Solute carrier organic anion transporter family member 1B3 (Homo sapiens, UniProt Q9NPD5); conditions: chinese hamster, cho, 10 µM
Sequence (Q9NPD5 whole entry): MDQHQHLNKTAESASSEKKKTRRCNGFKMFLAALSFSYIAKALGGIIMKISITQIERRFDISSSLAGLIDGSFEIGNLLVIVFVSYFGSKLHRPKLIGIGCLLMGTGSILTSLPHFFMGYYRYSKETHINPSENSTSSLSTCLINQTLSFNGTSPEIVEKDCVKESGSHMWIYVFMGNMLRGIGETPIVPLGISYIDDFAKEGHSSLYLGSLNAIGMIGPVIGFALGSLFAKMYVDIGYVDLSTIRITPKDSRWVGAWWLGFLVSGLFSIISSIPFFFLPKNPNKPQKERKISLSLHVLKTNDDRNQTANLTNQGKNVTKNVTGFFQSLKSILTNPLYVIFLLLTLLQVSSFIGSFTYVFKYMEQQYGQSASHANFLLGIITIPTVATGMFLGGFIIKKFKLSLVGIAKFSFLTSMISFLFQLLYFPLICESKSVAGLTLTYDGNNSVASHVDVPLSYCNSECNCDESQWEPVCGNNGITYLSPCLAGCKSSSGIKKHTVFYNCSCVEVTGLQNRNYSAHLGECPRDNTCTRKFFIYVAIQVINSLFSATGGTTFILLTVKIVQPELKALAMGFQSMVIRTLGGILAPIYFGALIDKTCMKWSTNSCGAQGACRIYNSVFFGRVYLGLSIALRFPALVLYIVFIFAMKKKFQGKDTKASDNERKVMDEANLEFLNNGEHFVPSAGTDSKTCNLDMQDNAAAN
Observable: residual activity (%)

Molecule: COC1=CC(=O)C(C(=O)c2ccccc2)=CC1=O
Endpoint Value: 165.6
//
Molecule: O=c1c(O)c(-c2ccc(O)c(O)c2)oc2cc(O)ccc12
Endpoint Value: 108.5
//
Molecule: CC12CCC3C(CC3(C)C)C(C)(CCC1=O)O2 (stereo unspecified)
Endpoint Value: 93.4
//
Molecule: CC(=O)OCC1=C(C(=O)[O-])N2C(=O)[C@@H](NC(=O)CCC[C@@H](N)C(=O)O)[C@H]2SC1.[Na+]
Endpoint Value: 103.2
//
Molecule: CO/N=C(\C(=O)N[C@@H]1C(=O)N2C(C(=O)[O-])=C(COC(C)=O)CS[C@H]12)c1csc(N)n1.[Na+] [CEFOTAXIME SODIUM]
Endpoint Value: 119.2
//
Molecule: CN(C)CC[C@@H](c1ccc(Cl)cc1)c1ccccn1.O=C(O)/C=C\C(=O)O [DEXCHLORPHENIRAMINE MALEATE]
Endpoint Value: 103.6
//
Molecule: C[C@H]1C[C@@H]2[C@H]([C@@H](O)C[C@@]3(C)[C@H]2CC[C@]3(O)C(=O)CO)[C@@]2(C)C=CC(=O)C=C12
Endpoint Value: 93.74
//
Molecule: COc1ccc(CN(CCN(C)C)c2ccccn2)cc1.O=C(O)/C=C\C(=O)O [PYRILAMINE MALEATE]
Endpoint Value: 101.4
//
Molecule: Cc1ncc([N+](=O)[O-])n1CC(C)O (stereo unspecified)
Endpoint Value: 92.29
//
Molecule: CCCCCN(CCCCC)C(=O)C(CCC(=O)[O-])NC(=O)c1ccc(Cl)c(Cl)c1.[Na+] (stereo unspecified) [LORGLUMIDE SODIUM]
Endpoint Value: 32.85
//
Molecule: CCN(CCCCOC(=O)c1ccc(OC)c(OC)c1)C(C)Cc1ccc(OC)cc1.Cl (stereo unspecified) [MEBEVERINE HYDROCHLORIDE]
Endpoint Value: 112
//
Molecule: CC(=O)O[C@H]1CC[C@]2(C)C3=CC(=O)[C@@]4(C)C(C[C@@H]5OC6(OCC(C)CC6Br)[C@@H](C)[C@@H]54)C3CC[C@H]2C1 (stereo partly specified)
Endpoint Value: 96.22
//
Molecule: CC1(C)CC[C@]2(C(=O)O)[C@H](O)C[C@]3(C)C(=CC[C@@H]4[C@@]5(C)CC[C@H](O)C(C)(C)[C@@H]5CC[C@]43C)[C@@H]2C1
Endpoint Value: 30.48
//
Molecule: CC(NCCC(c1ccccc1)c1ccccc1)c1ccccc1.Cl (stereo unspecified) [FENDILINE HYDROCHLORIDE]
Endpoint Value: 114.6
//
Molecule: C[C@]12CC[C@@H]3c4ccc(O)cc4CC[C@H]3[C@@H]1C[C@@H](O)[C@@H]2O
Endpoint Value: 102.7
//
Molecule: CCCCCCc1ccc(O)cc1O.Nc1c2ccccc2nc2ccccc12
Endpoint Value: 120.2
//
Molecule: NC(=O)N1c2ccccc2C=Cc2ccccc21 [CARBAMAZEPINE]
Endpoint Value: 99.43
//
Molecule: Cl.NCCc1ccc(O)c(O)c1 [DOPAMINE HYDROCHLORIDE]
Endpoint Value: 73.49
//
Molecule: COC1=C[C@]23CCCN2CCc2cc4c(cc2[C@@H]3[C@@H]1O)OCO4
Endpoint Value: 77.89
//
Molecule: OC[C@@H](O)[C@@H](O)[C@@H](O)CO
Endpoint Value: 94.42
//
Molecule: C=CCc1ccccc1OCC(O)CNC(C)C (stereo unspecified)
Endpoint Value: 120.6
//
Molecule: CN(C)CCOC(=O)COc1ccc(Cl)cc1.Cl [CENTROPHENOXINE HYDROCHLORIDE]
Endpoint Value: 88.3
//
Molecule: O=C([O-])c1cc(=O)c2c(OCC(O)COc3cccc4oc(C(=O)[O-])cc(=O)c34)cccc2o1.[Na+].[Na+] [CROMOLYN SODIUM]
Endpoint Value: 94.62
//
Molecule: COC(=O)C[C@H]1C(C)(C)[C@@H](O)[C@@H]2CC3=C4CC(O)O[C@@H](c5ccoc5)[C@]4(C)CCC3[C@@]1(C)C2=O (stereo partly drawn) [3,16-DIDEOXYMEXICANOLIDE-3beta-DIOL]
Endpoint Value: 53.76
//
Molecule: CN[C@H]1C[C@@H](N)[C@H](O)[C@@H](O[C@@H]2O[C@H](CO)[C@H](O)[C@H]3O[C@@]4(O[C@H]23)O[C@H]([C@H](N)CO)[C@H](O)[C@H](O)[C@H]4O)[C@@H]1O
Endpoint Value: 91.81
//
Molecule: CC1=CCCC2C1(C)CCC(C)C2(C)CC/C(C)=C/Cn1c[n+](C)c2c(N)ncnc21 (stereo unspecified)
Endpoint Value: 93.91
//
Molecule: O=c1c(-c2cc(O)c(O)c(O)c2)coc2cc(O)c(O)c(O)c12
Endpoint Value: 92.26
//
Molecule: CC(=O)O[C@@H]1C[C@H]2C(C)(C)C(=O)[C@H]3O[C@H]3[C@]2(C)[C@H]2CC[C@@]3(C)[C@H](c4ccoc4)OC(=O)[C@H]4O[C@]43[C@@]21C
Endpoint Value: 88.38
//
Molecule: CCC1(CC)C(=O)C=CNC1=O
Endpoint Value: 101.3
//
Molecule: CCCC(C)C1(CC)C(=O)[N-]C(=S)NC1=O.[Na+] (stereo unspecified) [THIOPENTAL SODIUM]
Endpoint Value: 84.51
//
Molecule: CC(C)c1ccc2c(c1O)CC[C@H]1C3=C(CC[C@]21C)C(=O)OC3 [TRIPTOPHENOLIDE]
Endpoint Value: 110.8
